FYI, the data here is from PubChem BioAssay (NCI).

Tested on: HL-60(TB) leukemia
assayOverview: NCI-60 one-dose screen, 48 h
conditionDescription: 10 µM unless noted
Description: Growth inhibition of the HL-60(TB) human tumor cell line is measured as a screen for anti-cancer activity. Cells are grown in 96 well plates and exposed to the test compound for 48 hours. Compounds are tested at a single concentration, which is 10^-5 M for most compounds. The reported endpoint is percent growth (GI% or GIPRCNT), where numbers from 0 - 100% represent growth inhibition, and numbers from -100% - 0 represent cell death. For example, a value of 40 represents 60% growth inhibition. […]
About 83,000 compounds went through this panel and 20% of them were active in at least one assay; those are over-represented in the sample as a whole. The source made the active and inactive calls. How the source made its calls: active means growth percent below 10; inactive means the rest.
Output constraint: value belongs to True for active, False for inactive

>>> labelclass("Fc1ccccc1-c1nc(-c2nc3cc(Cl)c(Cl)cc3[nH]2)c2ccccn12")
"False"
>>> labelclass("COc1ccc(-n2nc(C)c3c(Oc4ccc(NC(=O)Nc5c(Cl)cccc5Cl)cc4)ncnc32)cc1")
"False"
>>> labelclass("Nc1nc(Nc2cccnc2)sc1C(=O)c1ccccc1F")
"True"
>>> labelclass("COc1cccc(-c2ccc3c(c2)C2CCN(Cc4ccccc4)C3C2)c1 (stereo not drawn)")
"False"
>>> labelclass("COc1cc2c(c(OC)c1OC)-c1ccc(N=NC(N)=S)c(=O)cc1[C@@H](NC(C)=O)CC2")
"True"
>>> labelclass("COc1cc(-c2nc3sccn3c2-c2ccnc(NCCCNS(=O)(=O)c3ccc(F)cc3)n2)ccc1F")
"False"

Entry `COc1cc2ncnc(Nc3ccc(S(=O)(=O)Nc4nccs4)cc3)c2cc1OCCCN1CCCC1` : call = ? False

Hi team, can someone confirm the assay call for `CN(C)C(=O)c1cc2cnc(Nc3ccc(-c4csc5c(=O)cc(N6CCNCC6)oc45)cc3)nc2n1C1CCCC1` ? True

In this assay, the call recorded for `O=C(CCCCC[P+](c1ccccc1)(c1ccccc1)c1ccccc1)NC(COC(=O)C(Cl)Cl)(COC(=O)C(Cl)Cl)COC(=O)C(Cl)Cl` was what? False

Tell me the recorded outcome of this test for `O=C(/C=C/c1ccco1)c1ccc(Nc2ccnc3cc(Cl)ccc23)cc1` . True

Identify the outcome logged in this assay for the compound shown: `O=C(NC1CCN(Cc2ccccc2)CC1)c1cc(C(=O)NC2CCN(Cc3ccccc3)CC2)cc(C(=O)NC2CCN(Cc3ccccc3)CC2)c1` False

Which outcome was assigned to `C=C(C)[C@@H]1CC[C@]2(COC(C)=O)CC[C@]3(C)[C@H](CC[C@@H]4[C@@]5(C)CCCN(C(C)=O)C(C)(C)[C@@H]5CC[C@]43C)[C@@H]12` in this test? True

Could you kindly confirm the outcome this assay logged for `COc1c(C(=O)/C=C/c2ccc(C)o2)c(O)cc2occc12` ? False

For `Cn1ncc2c(=O)nc3c(-c4ccccc4)n[nH]n3c21` , what call appears in the results of this test? False

For `C1=C(Cc2ccccc2)n2cnc3ncnc(c32)S1` , which call appears in the assay record? False

###

Form field: growth (one value per entry).
Test system: A549/ATCC NSCLC
assayOverview: NCI-60 one-dose screen, 48 h (100 = growth as untreated, 0 = no growth, -100 = all killed)
conditionDescription: 10 µM unless noted
About 83,000 compounds went through this panel and 20% of them were active in at least one assay; those are over-represented in the sample as a whole.
All answers are understood in %, so give the number only.

Worked examples follow.
>>> resultnumber("CCCCCCCCCCCCOc1ccc(C(=O)Oc2ccc(CSP3(=O)OCC4OC(n5cnc6c(N)ncnc65)C(F)C4OP(=O)(O)OCC4OC(n5ccc(=O)[nH]c5=O)C(F)C4O3)cc2)cc1 (stereo not drawn)")
98.3
>>> resultnumber("CC(C)(O)/C=C/C(=O)[C@](C)(O)[C@H]1[C@H](O)C[C@@]2(C)[C@@H]3CC=C4[C@@H](C=C(O)C(=O)C4(C)C)[C@]3(C)C(=O)C[C@]12C")
0.767
>>> resultnumber("CCOC(=O)Nc1cc(Cl)c([N+](=O)[O-])c(NC(=O)OCC)n1")
95.2
>>> resultnumber("FC(F)=C(F)c1ccccc1")
108
>>> resultnumber("CC(C)OC(=S)[S-].[Au+].c1ccc([PH+](c2ccccc2)c2ccccc2)cc1")
84.5

I'd like to know its growth. The compound in question is N#CC1=C(N)Oc2cc3c(cc2C1c1cccs1)OCO3 (stereo not drawn) 36.8

Give its growth value. Item: `[Cl][Hg][n]1cnc2c(Cl)c(Cl)c(Cl)cc21` 86.7

Looking for the measured growth of `CNC(=O)Oc1cc(C(C)C)ccc1Sc1ccc(C(C)C)cc1OC(=O)NC` , can you help? 64.2

// lookup growth for COc1ccc(C2=NN(c3ccccc3)C(c3sc(N(CCCl)CCCl)nc3Cl)C2)cc1 (stereo not drawn) 85.6

###

System: SNB-19 CNS
assayOverview: NCI-60 one-dose screen, 48 h
conditionDescription: 10 µM unless noted
This is part of a sample that, as a whole, favours compounds with a hit. Of some 83,000 tested, about 20% had one in any assay. Calls of active or inactive are those of the source. How the source made its calls: active means growth percent below 10; inactive means the rest.
Your answer must be one of the following: active, inactive

Write down the call the test reported for this compound. Item: `Nc1ccc([N+](=O)[O-])c2c1Oc1ccccc1O2` inactive

Dear colleague, could you share the recorded outcome for `NS(=O)(=O)c1nc[nH]c1[N+](=O)[O-]` when you have a moment? inactive

Test call, this compound: `CN=C(NN)NN` inactive

###

Tested on: HL-60(TB) leukemia
assayOverview: NCI-60 one-dose screen, 48 h (100 = growth as untreated, 0 = no growth, -100 = all killed)
conditionDescription: 10 µM unless noted
The panel holds about 83,000 compounds, 20% with a hit somewhere; the sample as a whole holds those more often.
Where growth equals or exceeds 10%, the correct label is true (1); where it does not, the label is false (0).

>>> labelclass("CC(C)=CC(=O)N[C@@H]1CC2CCC3C(CC[C@@]4(C)C3CC[C@@H]4C(C)N(C)C)[C@@]2(C)C[C@@H]1O (some centres undefined)")
"false (0)"
>>> labelclass("C=C(C=O)[C@@H]1CC=C(C=O)CC1")
"false (0)"
>>> labelclass("C#CCC1(c2ccc(F)c(F)c2)NS(=O)(=O)c2ccccc21 (centres undefined)")
"true (1)"
>>> labelclass("COC(=O)c1ccc(C(=Nc2ccc(N(C)C(=O)CN3CCN(C)CC3)cc2)c2c(O)[nH]c3ccc(C(=O)OC)cc23)cc1")
"true (1)"
>>> labelclass("COC(=O)c1c(C)c2n(c1C)C(=O)C(c1ccccc1)=C2")
"true (1)"

Check if growth >= 10% (inclusive). Item: CC(=O)OCC(=O)C1CCC=CC1OC(C)=O (centres undefined) true (1)

###

The compounds listed here are annotated with their growth.
Test system: HL-60(TB) leukemia
assayOverview: NCI-60 one-dose screen, 48 h (100 = growth as untreated, 0 = no growth, -100 = all killed)
conditionDescription: 10 µM unless noted
This is part of a sample that, as a whole, favours compounds with a hit. Of some 83,000 tested, about 20% had one in any assay.
Answer format: numeric, % implied, no suffix.

Observed growth on HL-60(TB) leukemia for `Oc1ccc(N=Nc2nccs2)c(O)c1` , please. 5.98

GET /values?readout=growth&system=HL-60(TB) leukemia&item= `COc1ccc(Cn2c(C(N)=O)cc3c2-c2nc(N)ncc2CCC3)cc1` 121

Which measured growth belongs to `Cn1c(C(=O)c2cccc3ccccc23)nc2ccccc21` , tested on HL-60(TB) leukemia? 3.94

Hi! What's the reported growth for CCCCCCC/C=C/[C@H]1O[C@]2(O)C(=O)C=C3C[C@@H](O[C@@H]4O[C@H](CO)[C@@H](O)C(O)[C@@H]4O)C[C@@H]3[C@H]2C=C1C (stereo partly specified) on HL-60(TB) leukemia? -46.4

Short answer please: growth, HL-60(TB) leukemia, entry `Cn1c2ccccc2c2ssc(=S)c21` 43.5

// map O=C(C(Br)C(Br)c1ccccc1)C(Br)C(Br)c1ccccc1 (stereo unspecified) to recorded growth (system: HL-60(TB) leukemia) -49.7

###

Test system: HL-60(TB) leukemia
assayOverview: NCI-60 one-dose screen, 48 h
conditionDescription: 10 µM unless noted
Compounds without any hit were thinned out: in the full panel of roughly 83,000, 20% have a hit. The source made the active and inactive calls. How the source made its calls: active means growth percent below 10; inactive means the rest.
# valid calls are TRUE = active, FALSE = inactive; nothing else

>>> labelclass("O=C(CCn1cnc2c(cc(-c3ccccc3)n2-c2ccccc2)c1=O)Nc1ccc(F)cc1")
"FALSE"
>>> labelclass("Nc1c(C(=O)Nc2ccccc2F)sc2nc3c(cc12)C(=O)CCC3")
"FALSE"
>>> labelclass("CC(C)(C)OC(=O)N1CCc2c(sc3ncnc(N/N=C/c4ccccc4Br)c23)C1")
"FALSE"

Outcome? `CN(Cc1ccccc1)Cc1ccc([N+](=O)[O-])cc1I` FALSE

Tell me the assay call for `COc1ccc(Cc2cnc(NC(=O)c3ccc4c(c3)OCCO4)s2)cc1` please. TRUE
